tested on: NOMO1; assay: cell viability relative to DMSO control; higher = less cytotoxic; conditions: RPMI 5 mM glucose + 10% FBS; 48 h; 0.569 µM
Entries and their cell viability
Note to self: number, then unit, no commentary.

COC[C@H]1OC(=O)C2=COC3=C2[C@@]1(C)\C4=C(C5CCC(=O)[C@@]5(C)C[C@H]4OC(C)=O)/C3=O (stereo partly specified) = 100%

# input Supply measured cell viability of `Cc1cc(OCCCc2c(C(=O)O)n(Cc3cccnc3)c3c(-c4c(COc5ccc(N6CCN([S+](C)(=O)[O-])CC6)cc5)nn(C)c4C)cccc23)cc(C)c1Cl` in your reply.
# output 87.7%

# input Give me measured cell viability, please, for this molecule: `CC(=O)Nc1ccc(OC[C@](C)(O)C(=O)Nc2ccc([N+](=O)[O-])c(C(F)(F)F)c2)cc1`
# output 82.8%

# input Report cell viability for CCC(C)SSc1ncc[nH]1 (stereo unspecified)
# output 96.5%

# input Check the records and state cell viability for `Cc1cc(CN2CCN(c3c(Br)cnc4[nH]c(-c5ccc(N6CCN(C)CC6)cc5)nc34)CC2)no1`
# output 113%

# input Assign cell viability to the following record: CC(N[C@H]1C[C@@H]1c1ccccc1)c1ccc2c(c1)OCCO2 (stereo partly specified)
# output 113%

# input Provide only the value of recorded cell viability for `CC(C)OC(=O)OCOP(=O)(CO[C@H](C)Cn1cnc2c(N)ncnc21)OCOC(=O)OC(C)C.O=C(O)C=CC(=O)O`
# output 109%

# input State, in one line, measured cell viability of `CN\1C(=O)/C(=C(\N=C1N2CCCC[S+]2([O-])=O)C(=O)NCC3=CC=C(F)C=C3)O`
# output 112%

# input Check the records and state cell viability for `CC(C)n1nc(-c2cc3cc(O)ccc3[nH]2)c2c(N)ncnc21`
# output 88.1%

###

test system: P12-Ichikawa; assay: cell viability relative to DMSO control; higher = less cytotoxic; conditions: HPLM + 10% dialyzed FBS; 48 h; 0.19 µM
observation.type: cell viability (%)
Give the quantity in %, number only.

These recorded examples may help you get a feel for the data.
[NH2][Pt]1([NH2])[O]CC(=O)[O]1 = 102
COC1=CC=CC2=C1C(=NC(=N2)C3=CC=CS3)NN4C(=O)\C=C(C)/C4=O = 86.5
CN\1C(=O)/C(=C(\N=C1N2CCCC[S+]2([O-])=O)C(=O)NCC3=CC=C(F)C=C3)O = 122
CC1(C)Cc2c(-c3ccccc3)c(-c3ccc(Cl)cc3)c(CC(=O)O)n2C1 = 110
OC1=CC=C(C=C1)\C2=C\OC3=C(C=CC(=C3)O)C2=O = 104
Cc1ccc(NC(=O)c2ccc(CN3CCN(C)CC3)cc2)cc1Nc1nc(-c2cccnc2)cs1 = 102

# input Kindly indicate its recorded cell viability. Item: `CC(=O)N(C)c1cccc(-c2ccnc3c(C(=O)c4cccs4)cnn23)c1`
# output 110

# input Supply reported cell viability belonging to this compound: `N=C(CCSCc1csc(N=C(N)N)n1)N[S+](N)(=O)[O-]`
# output 98.2

# input Please report the measured cell viability for `c1cncc(CN2CCC(n3ncc4c(N5CCOCC5)nc(-c5ccc6[nH]ccc6c5)nc43)CC2)c1`
# output 92.2

###

tested on: SEM cells; experiment: cell viability relative to DMSO control; higher = less cytotoxic; conditions: HPLM + 10% dialyzed FBS; 48 h; 0.00702 µM
observation.type: cell viability (%)
State just the number; it will be interpreted in %.

N=C(CCSCc1csc(N=C(N)N)n1)N[S+](N)(=O)[O-] = 96.9

# input Identify measured cell viability corresponding to `COc1ccc(C[C@@H](C)[C@@H](C)Cc2ccc(OC)c(OC)c2)cc1OC`
# output 85.2

# input Retrieve cell viability measured for O=C([O-])C(O)Cc1ccc(O)c(O)c1 (configuration not stated) and print it.
# output 93.6

###

Measured AUC of viability dose-response curve accompanies every entry in the list below.
system: SEM cells; experiment: AUC of viability dose-response curve (% viability x log10 dose units); higher = less sensitive; conditions: HPLM + 10% dialyzed FBS; 48 h
Lab note: write the figure by itself, no unit.

COC1CCC(CC1)N(C(=O)C2CCC(C)CC2)C3=C(SC(=C3)\C4=C\CCCC4)C(O)=O (stereo not given) = 455
CC(C)n1c(/C=C/[C@H](O)C[C@H](O)CC(=O)O)c(-c2ccc(F)cc2)c2ccccc21 = 430

# input For SEM cells, give AUC of viability dose-response curve of the listed compound: COc1cccc2cc(-c3nc(C4CCC(C(=O)O)CC4)n4ncnc(N)c34)[nH]c12 (stereo not given)
# output 315

# input Provide AUC of viability dose-response curve, tested on SEM cells, for `NC1(c2ccc(-c3nc4ccn5c(=O)[nH]nc5c4cc3-c3ccccc3)cc2)CCC1` .
# output 322

# input Please respond with reported AUC of viability dose-response curve (system SEM cells) for `CC(C)N(CCNC(=O)CN1CCCC1=O)C(C)C` .
# output 477

###

Below: a set of entries, each annotated with reported cell viability.
system: NOMO1; assay: cell viability relative to DMSO control; higher = less cytotoxic; settings: RPMI 5 mM glucose + 10% dialyzed FBS; 48 h; 0.00234 µM
State just the number; it will be interpreted in %.

OC1=CC=C(C=C1)\C2=C\OC3=C(C=CC(=C3)O)C2=O = 108
CC/C(=C(/c1ccc(O)cc1)c1ccc(OCCNC)cc1)c1ccccc1 = 99.7
COc1ccc(CC2NCCc3cc(OC)c(OC)cc32)cc1OC (stereo not given) = 84.1
COC(=O)Nc1nc2cc(C(=O)c3cccs3)ccc2[nH]1 = 113
COC1=CC=CC2=C1C(=NC(=N2)C3=CC=CS3)NN4C(=O)\C=C(C)/C4=O = 85.3
CC(C)OC(=O)OCOP(=O)(CO[C@H](C)Cn1cnc2c(N)ncnc21)OCOC(=O)OC(C)C.O=C(O)C=CC(=O)O = 117
COc1c(C)cnc(Cn2cnc3c(Cl)nc(N)nc32)c1C = 122
O=C([O-])C(O)Cc1ccc(O)c(O)c1 (stereo not given) = 102
COC1CCC(CC1)N(C(=O)C2CCC(C)CC2)C3=C(SC(=C3)\C4=C\CCCC4)C(O)=O (stereo not given) = 102

# input Indicate its recorded cell viability; the molecule in question is `CNC(=O)c1ccc(-c2cnc3ncc(Cc4ccc5ncccc5c4)n3n2)cc1F`
# output 124

###

Attribute: cell viability
test system: SEM cells; assay: cell viability relative to DMSO control; higher = less cytotoxic; conditions: RPMI 5 mM glucose + 10% dialyzed FBS; 48 h; 0.0632 µM
Form entry: enter the amount, then its unit.

Solved entries (count: 6):
CNC1CCC(N(Cc2cccc(-c3ccncc3)c2)C(=O)c2sc3ccccc3c2Cl)CC1 (configuration not stated) = 77.7%
COc1cccc2cc(-c3nc(C4CCC(C(=O)O)CC4)n4ncnc(N)c34)[nH]c12 (configuration not stated) = 96%
C/C=C(/C)C(=O)O[C@H]1C(C)=C2[C@H]([C@@H]1OC(=O)CCCCCCC)[C@@](C)(OC(C)=O)C[C@H](OC(=O)CCC)[C@@]1(O)[C@H]2OC(=O)[C@@]1(C)O = 33.8%
O=NN(CCCl)C(=O)NC1CCCCC1 = 89.3%
Oc1ccc2c3c1O[C@H]1c4[nH]c5c(c4C[C@@]4(O)[C@@H](C2)N(CC2CC2)CC[C@]314)C[C@@]1(O)[C@H]2Cc3ccc(O)c4c3[C@@]1(CCN2CC1CC1)[C@H]5O4 = 107%
CC(=O)Oc1ccccc1C(=O)O = 108%

# input Provide cell viability, tested on SEM cells, for `Cl.Cl.Cl.O[C@@H](COc1cccc2ncccc12)CN1CCN([C@@H]2c3ccccc3[C@@H]3[C@H](c4ccccc42)C3(F)F)CC1` .
# output 101%

###

Measured cell viability by item
test system: SEM cells; experiment: cell viability relative to DMSO control; higher = less cytotoxic; details: HPLM + 10% dialyzed FBS; 48 h; 15.4 µM
Hi! Could you send only the number? It should be in %, unit omitted.

CN1[C@@H]2CC[C@H]1CC(OC(=O)c1c[nH]c3ccccc13)C2 (stereo partly drawn) = 114
O=c1c(-c2ccc(O)cc2)coc2cc(O[C@@H]3O[C@H](CO)[C@@H](O)[C@H](O)[C@H]3O)ccc12 = 91.1
COc1ccc(CC2NCCc3cc(OC)c(OC)cc32)cc1OC (stereo not drawn) = 79.5
O=C(OC)[C@]12CC[C@@]3(C)[C@]4(C)CC[C@H]5[C@@](C)(C)C(=O)C(=C[C@]5(C)C4=CC(=O)[C@@H]3[C@@H]2C[C@](C)(C)CC1)C#N = 3.9
Cc1ccc(NC(=O)c2ccc(CN3CCN(C)CC3)cc2)cc1Nc1nc(-c2cccnc2)cs1 = 20.2
CC1=C(/C=C/C(C)=C/C=C/C(C)=C/C=C/C=C(C)/C=C/C=C(C)/C=C/C2=C(C)CCCC2(C)C)C(C)(C)CCC1 = 95.4
COc1ccc(C[C@@H](C)[C@@H](C)Cc2ccc(OC)c(OC)c2)cc1OC = 16.3

With those in mind, consider the next molecule.
# input Find the measured cell viability of CC(C)C(C)/C=C/C(C)C1CCC2C3=CC=C4CC(O)CCC4(C)C3CCC21C (stereo not drawn) and report it.
# output 81.8
